# target.or.system: recombinant, biotinylated, Human 4-1BB/TNFRSF9/CD137-Fc (human) (UniProt Q07011)
# Sequence (Q07011 24-186 limits assumed): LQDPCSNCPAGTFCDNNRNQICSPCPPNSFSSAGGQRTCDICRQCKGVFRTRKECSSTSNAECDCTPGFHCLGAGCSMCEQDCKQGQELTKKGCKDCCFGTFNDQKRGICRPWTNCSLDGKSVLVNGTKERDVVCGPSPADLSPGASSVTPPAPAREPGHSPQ
# measurement.notes: phage ELISA, target-Fc against non-specific control (IgG1-Fc)
Strictly below 10 in ELISA ratio (target to background): Y. Otherwise: N.

1) DBDpp of SEQ ID NO: 13 (designed binder) MGSWVEFANRLWAIDQRLFALGGSEAELAAFEKEIAAFESELQAYKGKGNPEVEHLRDQAAFIRHKLQAYRHN
N
2) DBDpp of SEQ ID NO: 16 (designed binder) MGSWFEFNHRLWAINERLYALGGSEAELAAFEKEIAAFESELQAYKGKGNPEVERLRSMAAFIRYKLQAYRHN
N
3) DBDpp of SEQ ID NO: 18 (designed binder) MGSWYEFHYRLHAIDQRLYALGGSEAELAAFEKEIAAFESELQAYKGKGNPEVEELRIKAAFIRDRLQAYRHN
Y
4) DBDpp of SEQ ID NO: 17 (designed binder) MGSWYEFGHRLWAIDQRLYALGGSEAELAAFEKEIAAFESELQAYKGKGNPEVEYLRETAAHIRTRLQAYRHN
Y
5) DBDpp of SEQ ID NO: 15 (designed binder) MGSWYEFSMRLWAIDQRLYALGGSEAELAAFEKEIAAFESELQAYKGKGNPEVEALRAKAAYIRWKLQAYRHN
N
6) DBDpp of SEQ ID NO: 14 (designed binder) MGSWYEFRHRLWAIDQRLYALGGSEAELAAFEKEIAAFESELQAYKGKGNPEVEGLREAAAFIRAKLQAYRHN
N
7) DBDpp of SEQ ID NO: 12 (designed binder) MGSWVEFGHRLWAIDQRLYALGGSEAELAAFEKEIAAFESELQAYKGKGNPEVEKLRQRAAFIRFRLQAYRHN
N
